The values you see were collected from patent US20250289893A1.

target: T1, human CD1d expressed on HEK-293 cells (human, UniProt P15813 20-335; P61769 21-119); experiment: flow cytometry, HEK-293 cells, 0.1 µg/ml antibody
T1 construct: also called HEK - CD1d
RESULT_TYPE: Fluorescence Intensity Geomean (normalized to background) (fold over background)

[
  {
    "BINDER": "77A (VR11851) (antibody, V domains shown, also called OX77a; antibody 77a) VH: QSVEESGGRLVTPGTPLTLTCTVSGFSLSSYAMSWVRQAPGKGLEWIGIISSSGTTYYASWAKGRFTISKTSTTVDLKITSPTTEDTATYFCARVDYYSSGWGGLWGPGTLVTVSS VL: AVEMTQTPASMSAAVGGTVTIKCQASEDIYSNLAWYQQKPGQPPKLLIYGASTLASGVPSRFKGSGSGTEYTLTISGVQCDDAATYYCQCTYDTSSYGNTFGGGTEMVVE",
    "UNIT_STRING": "fold over background",
    "NUMBER": 0.9
  }
]
